From: patent US20250163162A1

Catalogue of Surface Activity values
study_target: T1, hIL2Rg-Fc (SinoBiological cat#10555) (human, UniProt P31785 23-254, limits assumed)
T1 construct: Bought Fc fusion (SinoBiological cat#10555); P31785 is printed for hCD132 in the background; also called human IL2Rg-Fc; not shown: Fc of the bought fusion protein
T1 sequence (looked up): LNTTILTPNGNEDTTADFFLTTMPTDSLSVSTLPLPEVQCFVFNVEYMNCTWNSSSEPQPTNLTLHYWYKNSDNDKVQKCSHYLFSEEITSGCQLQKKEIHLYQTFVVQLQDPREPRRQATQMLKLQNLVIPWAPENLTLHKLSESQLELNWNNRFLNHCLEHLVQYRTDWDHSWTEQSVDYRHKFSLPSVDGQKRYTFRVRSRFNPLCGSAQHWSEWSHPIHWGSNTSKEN
protocol: SPR (Biacore T200); ratio experimental/calculated Rmax
Please give a number only; it is taken to be in %.

[[record]]
binder = "DR474(DR241-DR234) (bispecific antibody, Anti-hIL10Ra/hIL2Rg dual VHH with ASH6 handle; also called H9) QVQLQESGGGSVQAGGSLRLSCAASGYSNCSYDMTWYRQAPGKEREFVSAIHSDGSTRYADSVKGRFFISQDNAKNTVYLQMNSLKPEDTAMYYCKTDPLHCRAHGGSWYSVRANYWGQGTQVTVSSGGGSQVQLQESGGGSVQAGGSLRLSCVASGYTFSSYCMGWFRQAPGKEREGVAALGGGSTYYADSVKGRFTISQDNAKNTLYLQMNSLKPEDTAMYYCAAAWVACLEFGGSWYDLARYKHWGQGTQVTVSSASHHHHHH"
reading = 6


Let us move to another entry and its Surface Activity.
Request: Please give the measured Surface Activity for this binder: DR395(DR229-DR239) (bispecific antibody, Anti-hIL10Ra/hIL2Rg dual VHH with ASH6 handle; also called A2) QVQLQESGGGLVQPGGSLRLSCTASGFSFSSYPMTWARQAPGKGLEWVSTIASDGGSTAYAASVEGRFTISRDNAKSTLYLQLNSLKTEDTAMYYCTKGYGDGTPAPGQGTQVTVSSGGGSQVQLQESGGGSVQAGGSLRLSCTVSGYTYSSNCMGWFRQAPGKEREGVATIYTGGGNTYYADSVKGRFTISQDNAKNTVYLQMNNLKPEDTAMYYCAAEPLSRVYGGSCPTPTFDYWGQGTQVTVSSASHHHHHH
Response: 5
